- study_system: Metabotropic glutamate receptor 8 (Rattus norvegicus) (UniProt P70579)
- Sequence (P70579 whole entry, looked up): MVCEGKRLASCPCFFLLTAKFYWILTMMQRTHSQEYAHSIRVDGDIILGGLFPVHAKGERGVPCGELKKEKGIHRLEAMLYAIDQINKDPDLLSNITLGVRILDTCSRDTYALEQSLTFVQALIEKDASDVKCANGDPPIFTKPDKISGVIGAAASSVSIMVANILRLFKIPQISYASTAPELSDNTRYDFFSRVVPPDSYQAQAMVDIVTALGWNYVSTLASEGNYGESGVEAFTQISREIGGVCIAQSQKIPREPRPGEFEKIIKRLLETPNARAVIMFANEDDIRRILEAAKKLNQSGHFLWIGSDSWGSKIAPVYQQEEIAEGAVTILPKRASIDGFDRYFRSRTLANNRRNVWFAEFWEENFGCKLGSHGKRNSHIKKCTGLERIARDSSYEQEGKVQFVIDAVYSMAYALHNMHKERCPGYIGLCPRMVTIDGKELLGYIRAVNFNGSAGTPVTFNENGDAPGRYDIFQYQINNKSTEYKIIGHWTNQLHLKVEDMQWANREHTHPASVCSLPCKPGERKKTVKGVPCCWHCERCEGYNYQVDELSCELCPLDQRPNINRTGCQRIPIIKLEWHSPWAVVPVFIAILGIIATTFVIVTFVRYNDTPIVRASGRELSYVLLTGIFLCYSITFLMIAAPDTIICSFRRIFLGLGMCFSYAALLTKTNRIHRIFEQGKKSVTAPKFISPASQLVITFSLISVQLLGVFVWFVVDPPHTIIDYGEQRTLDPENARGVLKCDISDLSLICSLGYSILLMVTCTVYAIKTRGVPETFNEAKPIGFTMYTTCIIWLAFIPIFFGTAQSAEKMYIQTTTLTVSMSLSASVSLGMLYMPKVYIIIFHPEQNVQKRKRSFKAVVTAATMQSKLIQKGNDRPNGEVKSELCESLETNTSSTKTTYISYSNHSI
- assay_overview: mGluR8 Gi/Go-coupled signaling modulation – cell-based, rat, thallium flux, HTS, primary screen (AID 488969)
- run_conditions: HEK293 rat mGluR8, GIRK thallium flux, FluoZin2; at 10 µM; stronger effect = higher value; submaximal glutamate (EC20) added with thallium
The full ranking holds about 110,000 compounds; the median of “z-score” is about -0.1, and the highest 2% start at about 2. The full list was thinned out, with the highest values kept by preference.
Reported z-score maps to class as: label 0: < -0.3; label 1: ≥ -0.3 and < 0.3; label 2: ≥ 0.3

Which z-score category applies to CCC(=O)Nc1ccc2c(c1)ncn2-c1ccccc1 here?
label 1

Which z-score category applies to Cc1cccc(N2CCN(C(=O)Cn3nc(Cc4ccncc4)c4ccccc4c3=O)CC2)c1C here?
label 0

Which z-score category applies to CCN(CC)c1ccc(NC(=O)CN2CCN(S(=O)(=O)c3cc(Cl)ccc3OC)CC2)cc1 here?
label 1

Which z-score category applies to O=C(Cn1nc(Cc2cccnc2)c2ccccc2c1=O)N1CCN(C(=O)c2ccco2)CC1 here?
label 0

Which z-score category applies to O=C(O)C1CCCN1C(=O)c1cccs1 (stereo unspecified) here?
label 2

Which z-score category applies to O=C(Cn1nc(Cc2ccncc2)c2ccccc2c1=O)N1CCN(C(=O)c2ccco2)CC1 here?
label 2

Which z-score category applies to O=C(CCN1C(=O)C2CC=C(Cl)CC2C1=O)NCc1ccco1 (stereo unspecified) here?
label 1

Which z-score category applies to CCC1=NC(c2ccc(OC)cc2OC)N(O)C1(C)C (stereo unspecified) here?
label 0

Which z-score category applies to O=C(OCc1ccccc1)C1CCCN1C(=O)c1cccs1 (stereo unspecified) here?
label 1

Which z-score category applies to COC(=O)C1CCCN1C(=O)c1cccs1 (stereo unspecified) here?
label 2

Which z-score category applies to C=CCC1(O)CC(c2ccco2)NC(c2ccco2)C1CCC (stereo unspecified) here?
label 2

* * *

- study_system: Metabotropic glutamate receptor 8 (Rattus norvegicus) (UniProt P70579)
- assay_overview: mGluR8 Gi/Go-coupled signaling modulation – cell-based, rat, thallium flux, HTS, primary screen (AID 488969)
- run_conditions: HEK293 rat mGluR8, GIRK thallium flux, FluoZin2; at 10 µM; stronger effect = higher value; submaximal glutamate (EC20) added with thallium
Over roughly 110,000 compounds, “z-score” has its median near -0.1; the highest 2% begin near 2. The sample holds the highest values, similar compounds and a random draw of the others, so the mix is not that of the screen.
result_type: z-score
Answer as a number with no unit attached.

O=C(Nc1ccccc1)N1CCN(c2ccc(F)cc2)CC1: 0.147

I'd like to know its z-score. The compound in question is CC(C)C(=O)NC(=S)Nc1ccccc1C(F)(F)F
0.0217

I'd like to know its z-score. The compound in question is Cc1ccc(S(=O)(=O)N2CCOCC2)c2nsnc12
-0.358

I'd like to know its z-score. The compound in question is CCCC(=O)NC(=S)Nc1ccccc1C(F)(F)F
0.25

I'd like to know its z-score. The compound in question is CCOC(=O)c1cc2c(ccn2C)n1CC(=O)N(Cc1ccccc1)c1ccc(F)cc1
1.2

I'd like to know its z-score. The compound in question is Cc1ccccc1NC(=O)C(C#N)Cc1cccnc1 (configuration not stated)
2.26

I'd like to know its z-score. The compound in question is COc1ccc(NC(=S)N/N=C2\CC(C)(C)Oc3ccc(OC)cc32)cc1
-0.239

* * *

- study_system: Metabotropic glutamate receptor 8 (Rattus norvegicus) (UniProt P70579)
- assay_overview: mGluR8 Gi/Go-coupled signaling modulation – cell-based, rat, thallium flux, HTS, primary screen (AID 488969)
- run_conditions: HEK293 rat mGluR8, GIRK thallium flux, FluoZin2; at 10 µM; stronger effect = higher value; submaximal glutamate (EC20) added with thallium
The full ranking holds about 110,000 compounds; the median of “z-score” is about -0.1, and the highest 2% start at about 2. Many of the other results were omitted from the sample, so the highest values are more common in it than they were.
Decision: z-score compared against 0.07; not below it gives 1, below it gives 0.

Worked set:
Cc1ccnc(N2CCC(C(=O)NNC(=O)COc3cccc4ccccc34)CC2)n1: 1
Cc1ccccc1OCc1nc2ccccc2c(=O)n1/N=C/c1cccc([N+](=O)[O-])c1: 0
Cc1ccc(F)cc1NC(=O)Cc1nn(C)c(=O)c2ccccc12: 0
Cc1cc2occ(CC(=O)NC3CCCc4ccccc43)c2cc1C (stereo not drawn): 0
Cn1nc(CC(=O)Nc2cccc3ncccc23)c2ccccc2c1=O: 1
COc1ccc(NC(=O)Cn2nnc(-c3ccccc3F)n2)cc1Cl: 1
COc1ccc2c(CC(=O)NC3CCCc4ccccc43)coc2c1 (stereo not drawn): 0
O=C(O)CCCC(=O)NCCc1ccncc1: 1

Is the recorded value of z-score equal to or greater than 0.07 for this molecule? S=C(NCCN1CCOCC1)Nc1ccc(Cl)cc1
0

Is the recorded value of z-score equal to or greater than 0.07 for this molecule? CCC/C(=N\NC(=O)c1csc(C)c1C)c1cccs1
1

Is the recorded value of z-score equal to or greater than 0.07 for this molecule? CCOc1ccc(NC(=O)Cn2nnc(-c3ccccc3F)n2)cc1
1

* * *

- study_system: Metabotropic glutamate receptor 8 (Rattus norvegicus) (UniProt P70579)
- assay_overview: mGluR8 Gi/Go-coupled signaling modulation – cell-based, rat, thallium flux, HTS, primary screen (AID 488969)
- run_conditions: HEK293 rat mGluR8, GIRK (G protein-gated inwardly rectifying potassium channel) thallium flux, FluoZin2; at 10 µM; stronger effect = higher value; submaximal glutamate (EC20) added with thallium
Whole data set: some 110,000 compounds, median “z-score” near -0.1, cut for the highest 2% near 2. The sample as a whole holds a higher share of the highest values than the screen did.
Decision: z-score compared against 0.05; not below it gives Fulfilled, below it gives Not fulfilled.

Worked set:
Cc1ccc(NC(=S)c2nc3ccccc3s2)cc1: Fulfilled
O=C(Nc1nc2ccc(F)cc2s1)C1CCCO1 (centres undefined): Fulfilled
CS(=O)(=O)c1ccc2nc(NC(=O)C3C4C=CC(C4)C3C(=O)O)sc2c1 (centres undefined): Fulfilled
Cc1cc(C)n(-c2nc3ccccc3c(=O)n2OCC(N)=O)n1: Not fulfilled
Cc1cc(CC(C)C)n(-c2nc3ccccc3c(=O)n2OCC(N)=O)n1: Fulfilled
CCCOC(=O)c1ccc(NC(=O)Oc2ccccc2)cc1: Fulfilled
Cc1ccc(C)c(NC(=S)N2CCC(c3nc4ccccc4s3)CC2)c1: Fulfilled
CCS(=O)(=O)c1nc2ccccc2n1CC(=O)N1CCOCC1: Fulfilled
CCCCOC(=O)Nc1ccc(C(=O)OCCC)cc1: Fulfilled
Cc1ccc(C)c(NC(=S)c2nc3ccccc3s2)c1: Fulfilled

Is the recorded value of z-score equal to or greater than 0.05 for this compound? Cc1cc(C)cc(C(=O)OCC(=O)Nc2cccc(S(=O)(=O)NC3=NCCCCC3)c2)c1
Fulfilled

Is the recorded value of z-score equal to or greater than 0.05 for this compound? CCCc1cc(=O)[nH]c(/N=C(/NC(=O)c2ccccc2)Nc2ccc3c(c2)OCCO3)n1
Not fulfilled

Is the recorded value of z-score equal to or greater than 0.05 for this compound? Cc1cccc(NC(=S)c2nc3ccccc3s2)c1
Fulfilled

Is the recorded value of z-score equal to or greater than 0.05 for this compound? Cc1occc1C(=O)Nc1ccccc1NC(=O)c1ccoc1C
Fulfilled

Is the recorded value of z-score equal to or greater than 0.05 for this compound? COCCN(CCOC)C(=O)CC(=O)N(CCOC)CCOC
Not fulfilled

Is the recorded value of z-score equal to or greater than 0.05 for this compound? Cc1cccc(NC(=O)c2ccccc2Br)n1
Not fulfilled

Is the recorded value of z-score equal to or greater than 0.05 for this compound? COC(=O)c1cc(NC(=O)c2ccoc2C)cc(C(=O)OC)c1
Fulfilled

Is the recorded value of z-score equal to or greater than 0.05 for this compound? S=C(Nc1ccc(Cl)cc1)c1nc2ccccc2s1
Fulfilled

Is the recorded value of z-score equal to or greater than 0.05 for this compound? O=c1c(O)c(-c2cccs2)oc2ccc(Cl)cc12
Fulfilled

Is the recorded value of z-score equal to or greater than 0.05 for this compound? O=C(CN(Cc1cccs1)C(=O)CNS(=O)(=O)c1ccc(F)cc1)NCc1ccco1
Not fulfilled

Is the recorded value of z-score equal to or greater than 0.05 for this compound? CCn1cc(C(=O)O)c(=O)c2cc(F)c(N3CCN(S(=O)(=O)c4ccc(Br)cc4)CC3)cc21
Not fulfilled

Is the recorded value of z-score equal to or greater than 0.05 for this compound? Cc1occc1C(=O)Nc1ccc2ccccc2c1
Fulfilled

Is the recorded value of z-score equal to or greater than 0.05 for this compound? Cc1cc(NC(=O)c2ccoc2C)no1
Not fulfilled

Is the recorded value of z-score equal to or greater than 0.05 for this compound? Cc1cc(CC(C)C)n(-c2nc3ccccc3c(=O)n2OCc2ccccc2)n1
Fulfilled

Source of measurements: PubChem BioAssay AID488969
